Measured inhibition at 250 µg/mL by item
system: Macrophomina phaseolina; experiment: Antifungal activity against Rhizoctonia bataticola assessed as growth inhibition at 250 ug/ml by poisoned food technique; format: functional
observation.type: inhibition at 250 µg/mL (%)

* C=C1C(=O)OC(CCCCCCCCCCCCC)C1C(=O)O (racemic) [(+/-)-Protolichesterinic acid] | 89.3
* COC(=O)c1c(C)cc(OC(=O)c2c(C)cc(O)c(C=O)c2O)c(C)c1O [ATRANORIN] | 80
* COC(=O)c1c(C)cc(O)c(C=O)c1O [METHYL HAEMATOMMATE] | 78.2
* COc1cc(C)c2c(=O)c3c(O)cc(OC)cc3oc2c1 [LICHEXANTHONE] | 50
* Cc1cc(O)c(C=O)c2c1C(=O)Oc1c(CO)c(O)c3c(c1O2)C(O)OC3=O (stereo unspecified) [SLAZINIC ACID] | 41.2
* COc1cc(C)c(C(=O)Oc2cc(C)c(C(=O)O)c(O)c2C)c(O)c1C=O [BAEOMYCESIC ACID] | 49.1
* COc1cc(C)c(C(=O)O)c(O)c1C | 68
* COC(=O)c1c(C)cc(O)c(C)c1O [ATRARIC ACID] | 90.3
* CC(=O)C1=C(O)C=C2Oc3c(C)c(O)c(C(C)=O)c(O)c3C2(C)C1=O (racemic) [(+/-)-ISOUSNIC ACID] | 87.2
* CCOC(=O)c1c(C)cc(O)cc1O [ORSELLINIC ACID, ETHYL ESTER] | 67.2
* CCOC(=O)c1c(C)cc(O)c(C=O)c1O [ETHYL HEMATOMMATE] | 53.4

---

test system: Athelia rolfsii; experiment: Antifungal activity against Athelia rolfsii assessed as growth inhibition by poisoned food technique; assay type: functional; settings: Agroathelia rolfsii; read-out: ED50 (the source's name)
Please note: EC50 exactly at 70 µg/mL is NO. Only values below 70 µg/mL get YES.

* CCCCC(O)(Cn1cncn1)c1ccc(Cl)cc1Cl (configuration not stated) | YES
* COc1cc(C)c2c(=O)c3c(O)cc(OC)cc3oc2c1 | NO
* COC(=O)c1c(C)cc(O)c(C=O)c1O [METHYL HAEMATOMMATE] | YES
* COC(=O)c1c(C)cc(OC(=O)c2c(C)cc(O)c(C=O)c2O)c(C)c1O | YES
* COC(=O)c1c(C)cc(O)c(C)c1O | NO
* C=C1C(=O)OC(CCCCCCCCCCCCC)C1C(=O)O (racemic) [(+/-)-Protolichesterinic acid] | YES
* COc1cc(C)c(C(=O)O)c(O)c1C | NO
* CCOC(=O)c1c(C)cc(O)cc1O | NO
* Cc1cc(O)c(C=O)c2c1C(=O)Oc1c(CO)c(O)c3c(c1O2)C(O)OC3=O (configuration not stated) | NO
* COc1cc(C)c(C(=O)Oc2cc(C)c(C(=O)O)c(O)c2C)c(O)c1C=O | NO
* CCOC(=O)c1c(C)cc(O)c(C=O)c1O [ETHYL HEMATOMMATE] | NO

---

Measured inhibition at 62.5 µg/mL by item
test system: Pythium aphanidermatum; test: Antifungal activity against Pythium aphanidermatum assessed as growth inhibition at 62.5 ug/ml by poisoned food technique; type: functional
observation.type: inhibition at 62.5 µg/mL (%)

- CCOC(=O)c1c(C)cc(O)cc1O [ORSELLINIC ACID, ETHYL ESTER]: 18.5
- COC(=O)c1c(C)cc(O)c(C=O)c1O [METHYL HAEMATOMMATE]: 24.4
- C=C1C(=O)OC(CCCCCCCCCCCCC)C1C(=O)O (racemic) [(+/-)-Protolichesterinic acid]: 44.3
- COc1cc(C)c2c(=O)c3c(O)cc(OC)cc3oc2c1 [LICHEXANTHONE]: 13
- COc1cc(C)c(C(=O)Oc2cc(C)c(C(=O)O)c(O)c2C)c(O)c1C=O [BAEOMYCESIC ACID]: 11.4
- COC(=O)c1c(C)cc(OC(=O)c2c(C)cc(O)c(C=O)c2O)c(C)c1O [ATRANORIN]: 22

Origin of measurements: ChEMBL document CHEMBL3046428
